# Species: Rattus norvegicus
# measurement-description: DrugMatrix - Regimen: Daily Repeat
# Assay type: toxicity, organism-based, Sprague-Dawley
# Parameters: regimen Daily Repeat, gender Male, age 6-8 weeks
# setup-conditions: in vivo, ip, 0 mg/kg, […], tissue Blood, route intraperitoneal, dose level Control, time 28 day, vehicle 100 % SALINE
readout: ABSOLUTE BASOPHIL (cells/µL)
Give bare numbers, in cells/µL.

## Task For the compound "NCC[C@H](O)C(=O)N[C@@H]1C[C@H](N)[C@@H](O[C@H]2O[C@H](CN)[C@@H](O)[C@H](O)[C@H]2O)[C@H](O)[C@H]1O[C@H]1O[C@H](CO)[C@@H](O)[C@H](N)[C@H]1O" , what ABSOLUTE BASOPHIL is on record?
## Result 91
